Taken from patent US8420657B2.

Molecular target: GST-JAK2(808-1132) (Homo sapiens)
Construct: GST-JAK2(808-1132); purchased Invitrogen (Carlsbad, USA) #4288
Sequence (O60674 808-1132): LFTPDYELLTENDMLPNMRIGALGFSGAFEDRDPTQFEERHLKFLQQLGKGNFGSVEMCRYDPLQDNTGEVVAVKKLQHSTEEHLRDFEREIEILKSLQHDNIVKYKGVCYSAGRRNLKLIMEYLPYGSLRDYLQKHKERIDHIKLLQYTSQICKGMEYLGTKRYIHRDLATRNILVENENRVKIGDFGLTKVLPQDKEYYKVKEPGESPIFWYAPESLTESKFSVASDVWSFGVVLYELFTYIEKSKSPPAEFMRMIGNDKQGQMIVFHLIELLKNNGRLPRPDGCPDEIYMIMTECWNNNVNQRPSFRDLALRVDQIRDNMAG
Assay: JAK2 kinase assay (Caliper mobility shift, LabChip 3000)
Type: biochemical
Method: All four kinases of the JAK/TYK-kinase family were used as purified recombinant GST-fusion proteins, containing the active kinase domains. GST-JAK1 (866-1154), GST-JAK3(811-1124), and GST-TYK2(888-1187) were expressed and purified by affinity chromatography at the EPK biology unit. […] The terminated reactions were transferred to the Caliper LabChip 3000 reader and the turnover of each reaction was measured by determining the substrate/product ratio. […]
outcome_measure: IC50

>  <item_smiles>
CC(=O)N1CCN(Cc2ccc(Nc3ncc4ccn(-c5ccc(S(C)(=O)=O)cc5)c4n3)cc2)CC1

>  <outcome_measure>
IC50

>  <val>
< 3 nM

$$$$
>  <item_smiles>
COc1cc(Nc2ncc3ccn(-c4cc(F)c(CN5CCS(=O)(=O)CC5)c(F)c4)c3n2)ccc1C

>  <outcome_measure>
IC50

>  <val>
< 3 nM

$$$$
>  <item_smiles>
C[C@@H]1CN(c2ccc(Nc3ncc4ccn(-c5cc(F)c(CN6CCNC(=O)C6)c(F)c5)c4n3)cn2)C[C@H](C)N1

>  <outcome_measure>
IC50

>  <val>
≤ 3 nM

$$$$
>  <item_smiles>
CS(=O)(=O)c1ccc(-n2ccc3cnc(Nc4ccc(OCCN5CCOCC5)cc4)nc32)cc1

>  <outcome_measure>
IC50

>  <val>
< 3 nM

$$$$

Sample O=C(c1ccc(Nc2ncc3ccn(-c4cc(F)c(CN5CCS(=O)(=O)CC5)c(F)c4)c3n2)cc1)N1CCOCC1 ; IC50 observed: < 3 nM
